Property: CC50; scope: individual compounds
- method-summary: Cytotoxicity against african green monkey Vero 76 cells after 48 to 96 hrs by MTT assay
- Assay type: cell-based
- measurement-context: chlorocebus sabaeus

compound: C/C(=N\NC(N)=S)c1ccc2c(c1)nc(-c1ccc(C(F)(F)F)cc1)n2C1CCCCC1
CC50: > 100 µM
//
compound: COc1ccc(-c2nc3cc(C(C)=O)ccc3[nH]2)cc1
CC50: > 100 µM
//
compound: O=c1cnn([C@@H]2O[C@H](CO)[C@@H](O)[C@H]2O)c(=O)[nH]1
CC50: ≥ 12.5 µM

Could you share which CC50 value was measured for C/C(=N\NC(N)=O)c1ccc2c(c1)nc(-c1ccc(Cl)cc1)n2C1CCCCC1 ?
> 100 µM

Could you share which CC50 value was measured for C/C(=N\NC(N)=O)c1ccc2c(c1)nc(-c1ccc(C(F)(F)F)cc1)n2C1CCCCC1 ?
> 100 µM

Could you share which CC50 value was measured for CC(=O)c1ccc2c(c1)nc(-c1ccccc1)n2C1CCCCC1 ?
80 µM

Could you share which CC50 value was measured for CC(=O)c1ccc2[nH]c(-c3ccc(Cl)cc3)nc2c1 ?
> 100 µM

Could you share which CC50 value was measured for C/C(=N\O)c1ccc2[nH]c(-c3ccccc3)nc2c1 ?
> 100 µM

---

- method-summary: Cytotoxicity against BHK21 cells by MTT assay
- Assay type: cell-based, Mesocricetus auratus
- measurement-context: hamster, BHK-21 cells
measurement-kind: CC50

structure-notation: COc1ccc(-c2nc3cc(C(C)=O)ccc3n2C2CCCCC2)cc1
CC50: > 100 µM

structure-notation: C/C(=N\NC(N)=O)c1ccc2c(c1)nc(-c1ccccc1)n2C1CCCCC1
CC50: > 100 µM

structure-notation: CC(=O)c1ccc2c(c1)nc(-c1ccccn1)n2C1CCCCC1
CC50: ≥ 100 µM

structure-notation: COc1ccc(-c2nc3cc(C(C)=O)ccc3[nH]2)cc1
CC50: 40 µM

structure-notation: C/C(=N\NC(N)=O)c1ccc2[nH]c(-c3ccccc3)nc2c1
CC50: > 100 µM

structure-notation: COc1ccc(-c2nc3cc(/C(C)=N/O)ccc3[nH]2)c(OC)c1OC
CC50: > 100 µM

structure-notation: COc1ccc(-c2nc3cc(/C(C)=N/O)ccc3[nH]2)c(OC)c1
CC50: > 100 µM

structure-notation: C/C(=N\NC(N)=O)c1ccc2[nH]c(-c3ccoc3)nc2c1
CC50: > 100 µM

structure-notation: COc1ccc(-c2nc3cc(C(C)=O)ccc3[nH]2)c(OC)c1OC
CC50: > 100 µM

structure-notation: C/C(=N\NC(N)=S)c1ccc2c(c1)nc(-c1ccoc1)n2C1CCCCC1
CC50: > 100 µM

Next:
Could you share which CC50 value was measured for C[C@@]1(O)[C@H](O)[C@@H](CO)O[C@H]1n1ccc(N)nc1=O ?
> 100 µM

---

- method-summary: Cytotoxicity against african green monkey Vero 76 cells after 48 to 96 hrs by MTT assay
- Type: cell-based
- measurement-context: chlorocebus sabaeus
measurement-kind: CC50

Could you share which CC50 value was measured for COc1c(C)c2c(c(O)c1C/C=C(\C)CCC(=O)O)C(=O)OC2 ?
≥ 12.5 µM

Could you share which CC50 value was measured for COc1ccc(-c2nc3cc(C(C)=O)ccc3[nH]2)c(OC)c1OC ?
> 100 µM

---

- System: Vaccinia virus
- method-summary: Antiviral activity against Vaccinia virus Elstree-Lister ATCC VR-1549 infected in african green monkey Vero-76 cells assessed as reduction in viral plaque after 3 days by crystal violet staining
- Assay type: functional, organism-based
- measurement-context: Orthopoxvirus vaccinia, Elstree-Lister ATCC VR-1549, Vero 76, 72 h
measurement-kind: EC50

molecule: COc1ccc(-c2nc3cc(/C(C)=N/NC(N)=S)ccc3[nH]2)cc1
EC50: > 100 µM
--
molecule: C/C(=N\NC(N)=S)c1ccc2[nH]c(C3CCCCC3)nc2c1
EC50: > 100 µM
--
molecule: COc1ccc(-c2nc3cc(/C(C)=N/O)ccc3[nH]2)c(OC)c1
EC50: > 100 µM
--
molecule: COc1ccc(-c2nc3cc(/C(C)=N/O)ccc3[nH]2)c(OC)c1OC
EC50: > 100 µM
--
molecule: CC(=O)c1ccc2[nH]c(-c3ccc(Cl)cc3)nc2c1
EC50: > 100 µM
--
molecule: C/C(=N\NC(N)=O)c1ccc2[nH]c(C3CCCCC3)nc2c1
EC50: > 100 µM

Could you share which EC50 value was measured for COc1ccc(-c2nc3cc(C(C)=O)ccc3n2C2CCCCC2)cc1 ?
> 30 µM

Could you share which EC50 value was measured for C/C(=N\NC(N)=O)c1ccc2[nH]c(-c3ccccc3)nc2c1 ?
> 100 µM

Could you share which EC50 value was measured for COc1ccc(-c2nc3cc(/C(C)=N/NC(N)=S)ccc3n2C2CCCCC2)cc1 ?
> 40 µM

Could you share which EC50 value was measured for C/C(=N\NC(N)=O)c1ccc2c(c1)nc(-c1ccccn1)n2C1CCCCC1 ?
> 100 µM

Could you share which EC50 value was measured for C/C(=N\NC(N)=O)c1ccc2[nH]c(-c3ccoc3)nc2c1 ?
> 100 µM

Could you share which EC50 value was measured for C/C(=N\NC(N)=O)c1ccc2c(c1)nc(-c1ccccc1)n2C1CCCCC1 ?
> 100 µM

Could you share which EC50 value was measured for CC(=O)c1ccc2c(c1)nc(-c1ccccc1)n2C1CCCCC1 ?
> 80 µM

Could you share which EC50 value was measured for CC(=O)c1ccc2[nH]c(-c3ccoc3)nc2c1 ?
> 100 µM

Could you share which EC50 value was measured for CC(=O)c1ccc2c(c1)nc(-c1ccc(C(F)(F)F)cc1)n2C1CCCCC1 ?
> 35 µM

---

- method-summary: Cytotoxicity against BHK21 cells by MTT assay
- Assay type: cell-based, Mesocricetus auratus
- measurement-context: hamster, BHK-21 cells
measurement-kind: CC50

compound: CC(=O)c1ccc2[nH]c(-c3ccc(Cl)cc3)nc2c1
measurement-kind: CC50
measured: > 100 µM

Could you share which CC50 value was measured for C/C(=N\NC(N)=O)c1ccc2c(c1)nc(-c1ccc(Cl)cc1)n2C1CCCCC1 ?
> 100 µM

Could you share which CC50 value was measured for COc1ccc(-c2nc3cc(/C(C)=N/O)ccc3[nH]2)cc1 ?
44 µM

Could you share which CC50 value was measured for CC(=O)c1ccc2[nH]c(C3CCCCC3)nc2c1 ?
> 100 µM

Could you share which CC50 value was measured for C/C(=N\O)c1ccc2[nH]c(-c3ccccc3)nc2c1 ?
> 100 µM

Could you share which CC50 value was measured for COc1ccc(-c2nc3cc(C(C)O)ccc3[nH]2)c(OC)c1 (stereo unspecified) ?
> 100 µM

---

Property: EC50; scope: individual compounds
- System: Coxsackievirus B5
- method-summary: Antiviral activity against Coxsackie virus type B5 Ohio-1 ATCC VR-29 infected in african green monkey Vero-76 cells assessed as reduction in viral plaque after 3 days by crystal violet staining
- Format: functional, organism-based
- measurement-context: Enterovirus B, Ohio-1 ATCC VR-29, Vero 76, 72 h

For orientation, consider the following solved cases.
compound: CC(=O)c1ccc2[nH]c(-c3ccccc3)nc2c1
measurement-kind: EC50
measured: > 100 µM
//
compound: C#C[C@@]1(O)[C@H](O)[C@@H](CO)O[C@H]1n1ccc(N)nc1=O [2'-ETHYNYL-D-CYTIDINE]
measurement-kind: EC50
measured: 27 µM
//
compound: C/C(=N\NC(N)=S)c1ccc2[nH]c(-c3ccccc3)nc2c1
measurement-kind: EC50
measured: > 100 µM

Next:
Could you share which EC50 value was measured for C/C(=N\NC(N)=O)c1ccc2[nH]c(-c3ccc(Cl)cc3)nc2c1 ?
> 100 µM

---

Property: CC50; scope: individual molecules
- method-summary: Cytotoxicity against BHK21 cells by MTT assay
- Format: cell-based, Mesocricetus auratus
- measurement-context: hamster, BHK-21 cells

molecule: COc1ccc(-c2nc3cc(C(C)O)ccc3[nH]2)c(OC)c1OC (stereo unspecified)
measured: 60 µM

molecule: CC(=O)c1ccc2[nH]c(-c3ccccc3)nc2c1
measured: > 100 µM

molecule: C/C(=N\NC(N)=O)c1ccc2c(c1)nc(-c1ccc(C(F)(F)F)cc1)n2C1CCCCC1
measured: > 100 µM

molecule: C/C(=N\NC(N)=O)c1ccc2[nH]c(-c3ccc(Cl)cc3)nc2c1
measured: > 100 µM

molecule: COc1ccc(-c2nc3cc(C(C)O)ccc3[nH]2)cc1 (stereo unspecified)
measured: > 100 µM

Could you share which CC50 value was measured for C/C(=N\O)c1ccc2[nH]c(-c3ccc(Cl)cc3)nc2c1 ?
33 µM

---

- method-summary: Cytotoxicity against MDBK cells after 48 to 96 hrs by MTT assay
- Type: cell-based, Bos taurus
- measurement-context: cattle
measurement-kind: CC50

For orientation, consider the following solved cases.
molecule: COc1ccc(-c2nc3cc(/C(C)=N/NC(N)=O)ccc3[nH]2)c(OC)c1
measured: > 100 µM

molecule: CC(=O)c1ccc2c(c1)nc(-c1ccccn1)n2C1CCCCC1
measured: > 100 µM

molecule: CC(=O)c1ccc2[nH]c(C3CCCCC3)nc2c1
measured: > 100 µM

molecule: COc1ccc(-c2nc3cc(/C(C)=N/O)ccc3[nH]2)c(OC)c1
measured: > 100 µM

Could you share which CC50 value was measured for C/C(=N\NC(N)=O)c1ccc2[nH]c(-c3ccccc3)nc2c1 ?
> 100 µM

Could you share which CC50 value was measured for C/C(=N\NC(N)=O)c1ccc2c(c1)nc(-c1ccccn1)n2C1CCCCC1 ?
> 100 µM
